The entries below come with measured pKi values attached.
Target: 5-hydroxytryptamine receptor 4 (Cavia porcellus)
Sequence (O70528 whole entry): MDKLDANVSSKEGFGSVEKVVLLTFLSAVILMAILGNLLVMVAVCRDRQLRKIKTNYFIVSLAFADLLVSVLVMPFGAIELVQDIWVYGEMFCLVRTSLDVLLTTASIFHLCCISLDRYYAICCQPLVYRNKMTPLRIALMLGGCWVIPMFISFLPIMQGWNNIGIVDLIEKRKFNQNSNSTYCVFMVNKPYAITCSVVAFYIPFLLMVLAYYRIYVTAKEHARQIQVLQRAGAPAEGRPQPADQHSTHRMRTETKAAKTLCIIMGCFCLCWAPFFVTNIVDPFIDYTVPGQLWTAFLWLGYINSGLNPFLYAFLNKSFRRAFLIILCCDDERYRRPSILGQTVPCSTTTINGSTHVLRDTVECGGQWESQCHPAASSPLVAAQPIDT
pKi: −log10 of the molar value.
metric: pKi

compound: COc1cc(N)c(Cl)cc1C(=O)NC1CC2CCC(C1)N2C (stereo in doubt)
rel: =
readout-value: 7.32
--
compound: CCOc1cc(N)c(Cl)cc1C(=O)NCC1CN(Cc2ccc(F)cc2)CCO1 (stereo not given) [MOSAPRIDE]
rel: =
readout-value: 7.16
--
compound: COc1cc(N)c(Cl)cc1C(=O)N[C@@H]1CN2CCC1CC2
rel: =
readout-value: 6.42
--
compound: CCN(CC)CCNC(=O)c1cc(Cl)c(N)cc1OC [METOCLOPRAMIDE]
rel: =
readout-value: 6.26
--
compound: COc1cc(N)c(Cl)cc1C(=O)NC1CCN2CCCC1C2 (stereo not given) [RENZAPRIDE]
rel: =
readout-value: 7.39
--
compound: COc1cc(N)c(Cl)cc1C(=O)NC[C@@H]1CCN2CCC[C@@H]12
rel: =
readout-value: 7.68
--
compound: COc1cc(N)c(Cl)cc1C(=O)NC1CC2CCC(C1)N2C (stereo in doubt; 2)
rel: <
readout-value: 6.00
--
compound: COc1cc(N)c(Cl)cc1C(=O)NCCN(C)Cc1ccccc1
rel: =
readout-value: 6.06
--
compound: COc1cc(N)c(Cl)cc1C(=O)NC1CC2CCC(C1)N2Cc1ccccc1 (stereo not given)
rel: =
readout-value: 6.63
--
compound: COc1cc(N)c(Cl)cc1C(=O)NC1CCN(Cc2ccccc2)CC1 [CLEBOPRIDE]
rel: =
readout-value: 6.98

Entry source: ChEMBL document CHEMBL1136809
